Origin of the recorded values: ChEMBL document CHEMBL1130379

TARGET: 5-hydroxytryptamine receptor 1D (Homo sapiens)
Sequence (P28221 whole entry): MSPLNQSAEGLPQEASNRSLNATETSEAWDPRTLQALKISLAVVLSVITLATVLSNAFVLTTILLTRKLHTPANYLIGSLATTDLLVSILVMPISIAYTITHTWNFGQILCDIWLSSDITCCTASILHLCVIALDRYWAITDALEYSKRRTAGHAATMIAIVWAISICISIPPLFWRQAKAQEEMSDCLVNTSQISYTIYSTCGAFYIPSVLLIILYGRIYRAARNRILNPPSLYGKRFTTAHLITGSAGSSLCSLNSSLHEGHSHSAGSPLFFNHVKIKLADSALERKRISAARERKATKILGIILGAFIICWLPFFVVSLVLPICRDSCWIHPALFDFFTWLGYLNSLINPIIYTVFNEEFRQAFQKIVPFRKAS
PROCEDURE_TEXT: Binding affinity by displacement to human cloned 5-hydroxytryptamine 1D receptor in CHO cells by [3H]5-HT displacement.
MEASURE_NAME: IC50 (nM)
Express it in nM; write the number only.

Lookup: State the recorded IC50 for this entry: `c1ccc(CNC[C@@H]2CCN(CCc3c[nH]c4ccc(-n5cnnc5)cc34)C2)cc1`
Found: 0.5

Lookup: State the recorded IC50 for this entry: `CN(Cc1ccccc1)CC1CCN(CCCc2c[nH]c3ccc(-n4cnnc4)cc23)CC1`
Found: 0.95

Lookup: State the recorded IC50 for this entry: `O=C(c1ccc(F)cc1)C1CCN(CCn2c(=O)[nH]c3ccccc3c2=O)CC1`
Found: 260

Lookup: State the recorded IC50 for this entry: `OC[C@H](NC1CCN(CCCc2c[nH]c3ccc(-n4cnnc4)cc23)CC1)c1ccc(F)cc1`
Found: 0.9

Lookup: State the recorded IC50 for this entry: `CN(Cc1ccccc1)C[C@@H]1CCN(CCc2c[nH]c3ccc(-n4cnnc4)cc23)C1`
Found: 0.7

Lookup: State the recorded IC50 for this entry: `CN(Cc1ccccc1)C1CCN(CCCc2c[nH]c3ccc(-n4cnnc4)cc23)CC1`
Found: 2.2

Lookup: State the recorded IC50 for this entry: `c1cc2[nH]cc(CCN3CCCC3)c2cc1-n1cnnc1`
Found: 3.4

Lookup: State the recorded IC50 for this entry: c1ccc(CNCC2CCN(CCc3c[nH]c4ccc(-n5cnnc5)cc34)C2)cc1 (single isomer, unassigned)
Found: 1.6

Lookup: State the recorded IC50 for this entry: c1ccc(CO[C@@H]2CCN(CCc3c[nH]c4ccc(-n5cnnc5)cc34)C2)cc1 (stereo in doubt; 4b)
Found: 6.3
